Target: 5-hydroxytryptamine receptor 1A (Rattus norvegicus, UniProt P19327)
Sequence (P19327 whole entry): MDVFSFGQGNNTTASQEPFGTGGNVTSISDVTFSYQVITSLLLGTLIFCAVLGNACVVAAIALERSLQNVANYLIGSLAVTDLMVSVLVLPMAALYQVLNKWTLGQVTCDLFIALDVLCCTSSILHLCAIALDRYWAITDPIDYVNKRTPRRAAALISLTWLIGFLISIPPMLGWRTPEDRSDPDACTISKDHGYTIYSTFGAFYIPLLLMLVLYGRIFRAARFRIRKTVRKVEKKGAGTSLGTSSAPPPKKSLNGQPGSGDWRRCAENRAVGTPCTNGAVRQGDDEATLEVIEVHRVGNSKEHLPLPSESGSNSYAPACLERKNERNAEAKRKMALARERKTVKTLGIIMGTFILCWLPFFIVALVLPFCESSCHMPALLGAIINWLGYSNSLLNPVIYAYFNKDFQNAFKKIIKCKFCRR
Measured Parameter: log10(Ki) (log10 of the value in nM)
Values below are the log10 of the recorded Ki, with nM as the unit.

Please review the following examples before continuing.
Input Smiles	log10(Ki)
COc1cccc(-n2c(=O)n(CCN3CCN(c4ccccc4C)CC3)c3ccccc32)c1	2.26
COc1cccc(-n2c(=O)n(CCN3CCN(c4ccccc4)CC3)c3ccccc32)c1	2.81

Could you tell me log10(Ki) for each of these compounds? They are listed below.
1. Cc1ccccc1N1CCN(CCn2c(=O)n(-c3ccccc3)c3ccccc32)CC1
2. O=c1[nH]c2ccccc2n1CCCCN1CCN(c2ccccc2)CC1

Result block:
2.23
1.92

Could you tell me log10(Ki) for each of these compounds? They are listed below.
1. COc1ccccc1N1CCN(CCCCCCn2c(=O)[nH]c3ccccc32)CC1
2. COc1ccc(-n2c(=O)n(CCN3CCN(c4ccccc4OC)CC3)c3ccccc32)cc1
3. O=c1[nH]c2ccccc2n1CCCCCN1CCN(c2ccc(Cl)cc2)CC1
4. COc1ccccc1N1CCN(CCCn2c(=O)[nH]c3ccccc32)CC1
5. O=c1[nH]c2ccccc2n1CCCCCCN1CCN(c2ccccc2)CC1

Result block:
[1.08, 1.34, 2.66, 0.53, 1.68]

Could you tell me log10(Ki) for each of these compounds? They are listed below.
1. COc1ccc(-n2c(=O)n(CCN3CCN(c4ccccc4)CC3)c3ccccc32)cc1
2. COc1ccccc1N1CCN(CCn2c(=O)[nH]c3ccccc32)CC1
3. COc1ccc(-n2c(=O)n(CCCCN3CCN(c4ccccc4OC)CC3)c3ccccc32)cc1
4. O=c1[nH]c2ccccc2n1CCCCCN1CCN(c2ccccc2)CC1
5. COc1ccccc1N1CCN(CCCCn2c(=O)[nH]c3ccccc32)CC1
6. Cc1ccccc1-n1c(=O)n(CCN2CCN(c3ccccc3)CC2)c2ccccc21
7. COc1ccc(-n2c(=O)n(CCCN3CCN(c4ccccc4OC)CC3)c3ccccc32)cc1
8. Cc1ccccc1N1CCN(CCn2c(=O)n(-c3ccccc3C)c3ccccc32)CC1

Result block:
1: 2.53; 2: 1.40; 3: 1.56; 4: 2.43; 5: 0.78; 6: 2.80; 7: 1.41; 8: 2.57

Query block: Request - read-out log10(Ki) | tested on 5-hydroxytryptamine receptor 1A (Rattus norvegicus, UniProt P19327) | compound O=c1[nH]c2ccccc2n1CCCN1CCN(c2ccccc2)CC1
Result block: 1.41
